Entries and their pKi
assayed system: T1, rat NK1 receptor (rat, UniProt P14600 1-407)
T1 construct: whole, on cells; membrane preparations of the transfected cells were used; also called rNK1; rNK-1
T1 sequence (P14600 whole entry): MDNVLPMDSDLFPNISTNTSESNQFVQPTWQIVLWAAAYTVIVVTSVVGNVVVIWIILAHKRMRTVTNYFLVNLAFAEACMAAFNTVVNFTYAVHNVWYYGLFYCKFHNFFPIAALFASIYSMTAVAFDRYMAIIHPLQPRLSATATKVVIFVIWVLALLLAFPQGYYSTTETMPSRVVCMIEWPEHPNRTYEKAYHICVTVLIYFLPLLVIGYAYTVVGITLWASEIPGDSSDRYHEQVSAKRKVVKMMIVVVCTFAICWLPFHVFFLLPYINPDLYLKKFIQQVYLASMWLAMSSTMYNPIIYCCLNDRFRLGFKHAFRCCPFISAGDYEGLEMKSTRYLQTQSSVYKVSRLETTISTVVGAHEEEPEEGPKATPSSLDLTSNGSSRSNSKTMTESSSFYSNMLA
assay name: competition vs [3H]Substance P, rNK1 CHO cell membranes
Bridge positions count the residues as written; N and C are the ends. Square brackets hold non-standard residues; d marks the D form. Ends that are not written are not given here. * marks the point of attachment. NH(3,5-(CF3)2-benzyl) = FC(F)(F)c1cc(CN*)cc(C(F)(F)F)c1; Nle = CCCC[C@H](N)C(=O)O
Value format note: pKi is -log10 of concentration (mol/L); just state the number.

[[record]]
binder = "Y[dA]GFMPLW-{NH(3,5-(CF3)2-benzyl)} (also called TY027) [TyrDAlaGlyPheMetProLeuTrpNHBn(CF3)2]"
parameter = "pKi"
readout_number = 8.14


Now look at this one.
Q) Returns the measured pKi for the input binder. Input: Y[dC]GF[Nle]P[dC]W-{NH(3,5-(CF3)2-benzyl)} (disulfide 2-7, cyclic; also called TY038; [D-Cys2, D-Cys7]TY027) [Tyr[DCysGlyPheNleProDCys]TrpNHBn(CF3)2]
A) 8.15
